measurement protocol: Cytotoxicity of didemnins (Table II)
Format: cell-based
applied conditions: Dose 2.5 ng/mL
Starred links: 1 amine or outer side, 2 acyl side, 3 side chain; linkers in the order of their positions; H or OH if unused. Positions of bridges follow the written chain, without caps; N, C: chain ends. Non-standard residues stand in square brackets, D forms with d. Residues, ends and D or L forms follow the SMILES beside them. X1 = CC[C@H](C)[C@@H](N[*:1])[C@@H](O)CC(=O)O[C@H](C(=O)[C@H](C)C(=O)[*:2])C(C)C; NMeY = CN[C@@H](Cc1ccc(O)cc1)C(=O)O; dNMeL = CN[C@H](CC(C)C)C(=O)O; Lac = C[C@H](O)C(=O)O
Give Inhibition (%) for every item shown.
Give bare numbers, in %.

compound: CC[C@H](C)[C@H]1NC(=O)[C@@H](NC(=O)[C@@H](CC(C)C)NC)[C@@H](C)OC(=O)[C@H](Cc2ccc(OC)cc2)N(C)C(=O)[C@@H]2CCCN2C(=O)[C@H](CC(C)C)NC(=O)[C@@H](C)C(=O)[C@H](C(C)C)OC(=O)C[C@@H]1O [Didemnin A (1), Didemnin A] (H-[dNMeL]T[X1]LP[NMeY](Me); ester 2-C)
experimental result: 0

Okay, next one:
Inquiry: What does the record list as Inhibition (%) for CC[C@H](C)[C@H]1NC(=O)[C@@H](NC(=O)[C@@H](CC(C)C)N(C)C(=O)[C@@H]2CCCN2C(=O)[C@H](C)OC(=O)[C@@H](N)CCC(N)=O)[C@@H](C)OC(=O)[C@H](Cc2ccc(OC)cc2)N(C)C(=O)[C@@H]2CCCN2C(=O)[C@H](CC(C)C)NC(=O)[C@@H](C)C(=O)[C@H](C(C)C)OC(=O)C[C@@H]1O [Gln-Didemnin B, Glutaminyl-didemnin B] (H-Q[Lac]P[dNMeL]T[X1]LP[NMeY](Me); ester 5-C) ?
Reply text: 100
